These measurements were taken from PubChem BioAssay.

test: inhibitors of TNFa-induced NFkB p65 translocation, primary screen, imaging, HUVEC, MLSMR starter and 10KST1 sets (AID 438); settings: HUVEC TNFa-induced p65 nuclear translocation; at 2 µM, active compounds read high, 0% TNFa-plus-vehicle, 100% no-TNFa wells;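 further: compound added about 3h40 before a 20 min TNFalpha stimulation; signal is the nuclear over cytoplasmic p65 intensity ratio per well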
Active and inactive are the calls of the source.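 How the source made its calls: active means inhibition above 20% together with a positive visual image hit; inconclusive means visual image hit but inhibition not above 20%; inactive means no visual image hit.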
recorded.metric: inhibition

Query: Determine its reported inhibition: O=C(Oc1ccc(Cl)cc1N1C(=O)CCC1=O)c1ccco1
Result: -4.2% (inactive)

Query: Determine its reported inhibition: COC(=O)Nc1sccc1C(=O)Nc1sccc1C(=O)OC
Result: -0.2% (inactive)

Query: Determine its reported inhibition: O=C(O)CCc1ccc(-c2ccc(F)cc2)n1CCC(=O)O
Result: 1.8% (inactive)

Query: Determine its reported inhibition: CCOC(=O)c1ccccc1NC(=O)Cn1cnc2c(cnn2-c2ccc(OC)cc2)c1=O
Result: -25.5% (inactive)

Query: Determine its reported inhibition: CCN1C(=O)/C(=C2\C=Cc3ccccc3N2CC)OC1=S
Result: -8% (inactive)

Query: Determine its reported inhibition: O=C(CSc1ncn[nH]1)c1ccco1
Result: -13.5% (inactive)

Query: Determine its reported inhibition: Cc1ccc(S(=O)(=O)NCC(c2cccnc2)N(C)C)cc1 (stereo not drawn)
Result: -1.9% (inactive)

Query: Determine its reported inhibition: COCCn1c(=NC(=O)CSC(C)=O)sc2cc(F)ccc21
Result: -6.2% (inactive)

Query: Determine its reported inhibition: CCN(CC(=O)NCc1cccs1)C(=O)c1cc(S(=O)(=O)N2CCOCC2)ccc1C
Result: -9.6% (inactive)

Query: Determine its reported inhibition: CCn1c(SCc2cc(=O)[nH]c3ccccc23)nc2c1c(=O)n(C)c(=O)n2C
Result: 1% (inactive)

Query: Determine its reported inhibition: Cc1cc(NC(=O)CS(=O)(=O)c2cn(Cc3cccc(F)c3)c3ccccc23)no1
Result: -6.6% (inactive)

Query: Determine its reported inhibition: CCOc1ccc(/C=N/n2cnnc2)cc1
Result: -2.2% (inactive)

Query: Determine its reported inhibition: Cc1cccc2cc(CN(Cc3nnnn3Cc3ccccc3)C3CCCC3)c(=O)[nH]c12
Result: -9% (inactive)

Query: Determine its reported inhibition: O=S1(=O)C=CC(Nc2cccc(Cl)c2)C1 (stereo not drawn)
Result: -1% (inactive)

Query: Determine its reported inhibition: COc1cc(-c2nc(S(=O)(=O)c3ccc(C)cc3)c(N(C)C)o2)cc(OC)c1OC
Result: -6.3% (inactive)

Query: Determine its reported inhibition: CC(=O)N1C(=O)N(C)C2C1N(C(C)=O)C(=O)N2C (stereo not drawn)
Result: 5.4% (inactive)

Query: Determine its reported inhibition: CCSc1ccccc1C(=O)NCc1ccc(S(N)(=O)=O)cc1
Result: 1.1% (inactive)

Query: Determine its reported inhibition: Nc1nc(Nc2ccc(Cl)cc2Cl)nc(C(F)(F)F)n1
Result: 0.6% (inactive)

Query: Determine its reported inhibition: CC(C(=O)Nc1ccccc1-c1ccccc1)N1CCN(C(=O)c2ccco2)CC1 (stereo not drawn)
Result: -11.2% (inactive)

Query: Determine its reported inhibition: CNC(=O)CSc1nnc(-c2cc(C)cc(C)c2)o1
Result: -5% (inactive)

Query: Determine its reported inhibition: CCOC(=O)c1ccc(CNC(=O)C(Cc2c[nH]c3ccccc23)NC(C)=O)o1 (stereo not drawn)
Result: -0.3% (inactive)

Query: Determine its reported inhibition: CCCOc1ccc(N2C(=O)CC(NCCCN3CCC(C(N)=O)CC3)C2=O)cc1 (stereo not drawn)
Result: -0.7% (inactive)

Query: Determine its reported inhibition: CCOC(=O)N1CCC(n2c(SCC(=O)NCc3ccco3)nc3ccsc3c2=O)CC1
Result: 3.4% (inactive)

Query: Determine its reported inhibition: O=C1c2ccccc2C(Nc2ccc(F)cc2F)N1CCN1CCOCC1 (stereo not drawn)
Result: 1.8% (inactive)

Query: Determine its reported inhibition: Nc1cccc2c1C(=O)N(c1ccccc1)C2=O
Result: 1.8% (inactive)

Query: Determine its reported inhibition: CC(=O)Nc1ccc(NC(=O)c2cc(C)nn2-c2ccccc2)cc1
Result: -6.1% (inactive)

Query: Determine its reported inhibition: Cc1cc(C)cc(OCCCC(=O)O)c1
Result: 9.4% (inactive)

Query: Determine its reported inhibition: CCOC(=O)N1CCC(NC(=O)C2CCC(Cn3c(=O)[nH]c4ccccc4c3=O)CC2)CC1 (stereo not drawn)
Result: -0.3% (inactive)

Query: Determine its reported inhibition: CCn1nnnc1SCC(=O)Nc1nc(-c2cccs2)cs1
Result: -8.9% (inactive)

Query: Determine its reported inhibition: CCOC(=O)c1ccc(NC(=O)CCNc2c(N3CCCC3)c(=O)c2=O)cc1
Result: 0% (inactive)

Query: Determine its reported inhibition: C(/CCc1ccccc1)=N\n1cnnc1
Result: 18.4% (inactive)

Query: Determine its reported inhibition: O=C(CSc1nnc(-c2cccs2)o1)NCC1CN(Cc2ccccc2)CCO1 (stereo not drawn)
Result: 7.8% (inactive)

Query: Determine its reported inhibition: Clc1ccc(OCc2nnc(SCCN3CCCCC3)n2Cc2ccco2)cc1
Result: -2.7% (inactive)
